- Target system: T1, Peptide A (human PAR-2), C-terminal biotinylated (Human, C-terminal biotin via G4S linker)
- T1 construct: also called Peptide A C-Term
- Assay protocol: SPR, peptide immobilized
Outcome measure: T1/2

H2M618N (antibody, V domains shown, chimeric: human variable, mouse constant domains) VH: EVQLLESGGGLVQPGGSLRLSCAASGFTFRSYTMTWVRQAPGKGLDWVSGITDSGAGTYYGDSVKGRFTISRDNSKNTLYLQMNSLRAEDTAVYYCVKEGDSGYDLDYWGQGTLVTVSS VL: DIQMTQSPSSLSASVGDRVTITCRASQGISTYLAWLQQKPGKAPKSLIYATSSLQSGVPSKFSGSRSGTDFTLTISSLQPEDFATYYCQQYKSSPLTFGGGTKVEIK : 1.32 h
H4H585P (antibody, human IgG4, V domains shown, also called H1H585P variable regions) VH: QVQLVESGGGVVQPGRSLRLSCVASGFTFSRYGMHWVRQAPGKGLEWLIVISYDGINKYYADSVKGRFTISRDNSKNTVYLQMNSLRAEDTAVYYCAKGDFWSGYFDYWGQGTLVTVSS VL: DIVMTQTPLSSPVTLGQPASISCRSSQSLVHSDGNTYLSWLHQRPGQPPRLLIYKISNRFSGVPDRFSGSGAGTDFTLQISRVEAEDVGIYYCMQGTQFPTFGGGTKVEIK : 8.22 h
H4H584P (antibody, human IgG4, V domains shown, also called H1H584P variable regions) VH: QVQLVESGGGVVQPGRSLRLSCVASGFTFSRYGMHWVRQAPGKGLEWVVVISYDGINKYYADSVKGRFTISRDNSKNTVYLQMNSLRAEDTAVYYCAKGDFWSGYFDYWGQGTLVTVSS VL: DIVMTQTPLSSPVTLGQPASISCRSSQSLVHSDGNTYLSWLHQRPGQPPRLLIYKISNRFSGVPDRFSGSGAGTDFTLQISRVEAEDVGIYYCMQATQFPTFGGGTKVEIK : 0.917 h
H4H581P (antibody, human IgG4, V domains shown, also called mAb H4H581P; H1H581P variable regions) VH: QVQLVESGGGVVQPGRSLRLSCVASGFTFSRYGIHWVRQAPGKGLEWVIVISYDGINKYYADSVKGRFTISRDNSKNTVYLQMNSLRAEDTAVYYCAKGDFWSGYFDYWGQGTLVTVSS VL: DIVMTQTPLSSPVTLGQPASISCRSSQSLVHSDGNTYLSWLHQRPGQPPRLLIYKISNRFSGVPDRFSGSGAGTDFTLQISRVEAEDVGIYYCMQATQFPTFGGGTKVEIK : 2.23 h
H2M588N (antibody, V domains shown, chimeric: human variable, mouse constant domains) VH: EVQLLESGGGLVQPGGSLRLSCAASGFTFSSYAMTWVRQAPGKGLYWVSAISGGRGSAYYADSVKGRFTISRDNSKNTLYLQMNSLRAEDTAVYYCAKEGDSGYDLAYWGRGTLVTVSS VL: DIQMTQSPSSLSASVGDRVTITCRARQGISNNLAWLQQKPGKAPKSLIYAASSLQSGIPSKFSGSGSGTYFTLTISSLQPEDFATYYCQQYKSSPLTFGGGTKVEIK : 2.82 h

# batch size: 2; output T1/2 per entry
1. H4H588N (antibody, human IgG4, V domains shown, also called H2M588N variable regions) VH: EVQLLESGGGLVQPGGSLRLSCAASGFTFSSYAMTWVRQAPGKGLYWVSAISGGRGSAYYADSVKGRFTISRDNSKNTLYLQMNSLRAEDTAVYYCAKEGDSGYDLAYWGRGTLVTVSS VL: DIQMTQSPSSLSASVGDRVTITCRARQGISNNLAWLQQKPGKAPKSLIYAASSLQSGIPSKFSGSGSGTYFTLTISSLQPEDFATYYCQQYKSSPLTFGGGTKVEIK
2. H4H579P (antibody, human IgG4, V domains shown, also called H1H579P variable regions) VH: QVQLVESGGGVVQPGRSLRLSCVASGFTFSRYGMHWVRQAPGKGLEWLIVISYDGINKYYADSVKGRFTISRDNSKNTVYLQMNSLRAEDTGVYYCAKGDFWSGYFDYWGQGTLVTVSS VL: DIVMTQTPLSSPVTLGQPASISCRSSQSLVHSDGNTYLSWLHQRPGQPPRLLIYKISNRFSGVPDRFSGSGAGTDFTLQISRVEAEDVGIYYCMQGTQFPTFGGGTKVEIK

2.35 h
7.98 h
